Origin of values: patent US20250250357A1

Target: T1, human MSLN-R1-his protein (human, UniProt Q13421 296-390)
T1 construct: Made in HEK293E cells, purified on nickel column; also called hMSLN-R1-his; human MSLN-R1 protein; not shown: His tag
T1 chain: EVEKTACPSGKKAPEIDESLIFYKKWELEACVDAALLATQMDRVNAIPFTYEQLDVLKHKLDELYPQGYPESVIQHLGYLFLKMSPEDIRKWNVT
Assay: ELISA, coated antigen, antibody 0.02 nM
endpoint.name: OD450
Give the figure by itself; no unit, no explanation.

Exam item: # OD450 lookup, item S009-F7.23.19 chimeric antibody (antibody, human IgG1, kappa, V domains shown, Human-murine chimeric antibody, human IgG1/kappa constant regions) VH: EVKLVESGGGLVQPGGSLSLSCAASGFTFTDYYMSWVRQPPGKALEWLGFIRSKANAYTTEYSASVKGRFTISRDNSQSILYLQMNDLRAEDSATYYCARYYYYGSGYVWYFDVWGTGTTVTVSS VL: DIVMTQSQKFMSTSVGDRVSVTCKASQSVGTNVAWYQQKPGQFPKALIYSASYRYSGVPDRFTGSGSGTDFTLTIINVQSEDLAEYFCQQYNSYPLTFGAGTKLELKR
Marked response: 0.05

Exam item: # OD450 lookup, item S009-F7.67.12 chimeric antibody (antibody, human IgG1, kappa, V domains shown, Human-murine chimeric antibody, human IgG1/kappa constant regions) VH: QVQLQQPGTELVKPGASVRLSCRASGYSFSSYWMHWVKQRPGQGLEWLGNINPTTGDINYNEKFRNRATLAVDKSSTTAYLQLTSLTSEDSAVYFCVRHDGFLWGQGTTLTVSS VL: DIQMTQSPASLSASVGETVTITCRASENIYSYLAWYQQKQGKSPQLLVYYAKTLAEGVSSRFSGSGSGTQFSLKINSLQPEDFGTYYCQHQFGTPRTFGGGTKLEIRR
Marked response: 0.05

Exam item: # OD450 lookup, item S009-F7.66.12 chimeric antibody (antibody, human IgG1, kappa, V domains shown, Human-murine chimeric antibody, human IgG1/kappa constant regions) VH: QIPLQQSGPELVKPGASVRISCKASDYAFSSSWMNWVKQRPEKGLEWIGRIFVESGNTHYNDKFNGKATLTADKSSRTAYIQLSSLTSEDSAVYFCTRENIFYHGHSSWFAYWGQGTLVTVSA VL: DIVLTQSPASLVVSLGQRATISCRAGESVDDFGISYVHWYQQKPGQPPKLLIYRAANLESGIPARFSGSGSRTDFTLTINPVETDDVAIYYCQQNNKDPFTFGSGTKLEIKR
Marked response: 0.04

Exam item: # OD450 lookup, item S009-F7.30.5 chimeric antibody (antibody, human IgG1, kappa, V domains shown, Human-murine chimeric antibody, human IgG1/kappa constant regions) VH: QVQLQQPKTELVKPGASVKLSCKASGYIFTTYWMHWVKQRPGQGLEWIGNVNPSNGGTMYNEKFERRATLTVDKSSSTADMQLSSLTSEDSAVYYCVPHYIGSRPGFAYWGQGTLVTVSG VL: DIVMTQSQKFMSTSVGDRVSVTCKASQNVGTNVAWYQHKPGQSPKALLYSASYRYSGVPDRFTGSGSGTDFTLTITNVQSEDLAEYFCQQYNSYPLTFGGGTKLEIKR
Marked response: 0.05

Exam item: # OD450 lookup, item S009-F7.48.1 chimeric antibody (antibody, human IgG1, kappa, V domains shown, Human-murine chimeric antibody, human IgG1/kappa constant regions) VH: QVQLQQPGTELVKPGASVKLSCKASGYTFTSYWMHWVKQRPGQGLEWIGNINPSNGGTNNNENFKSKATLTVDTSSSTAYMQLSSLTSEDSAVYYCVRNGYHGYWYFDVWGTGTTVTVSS VL: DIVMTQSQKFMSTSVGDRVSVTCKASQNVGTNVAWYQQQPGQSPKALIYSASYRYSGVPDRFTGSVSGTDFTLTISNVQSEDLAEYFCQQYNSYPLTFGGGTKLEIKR
Marked response: 0.04
